For each of the compounds below, state its TGI.
Tested on: MCF7 breast
Experiment: NCI tumour cell line growth inhibition, 48 h

Reported TGI ( NC(=S)N/N=C1\CCc2ccccc2C1 ) = > 100 µM

Reported TGI ( Cc1ccc(-c2csc3ncnc(Nc4cccc(O)c4)c23)cc1 ) = > 100 µM

Reported TGI ( CC1=NN(c2nc(N)nc(CCl)n2)C(C)(C)C1 ) = > 100 µM

Reported TGI ( COc1cnc2oc3ccc(O)cc3c2c1-c1ccccc1 ) = > 100 µM

Reported TGI ( C=CCC(NCc1ccccc1)c1cn(C(=O)OCC)c2ccccc12 (configuration not stated) ) = > 100 µM

Reported TGI ( CCOc1ccc(NC(=O)/C=C/c2ccco2)cc1 ) = > 100 µM

Reported TGI ( CC(=O)OC1C(C)OC(Oc2c(-c3ccc(O)cc3)oc3cc(O)cc(O)c3c2=O)C(O)C1OC(C)=O (configuration not stated) ) = > 100 µM

Reported TGI ( COc1ccc(/C=C2\CC3C4CC=C5C[C@@H](N6CCCC6)CC[C@]5(C)C4CC[C@]3(C)[C@H]2O)cc1OC (some centres not stated) ) = 14.8 µM

Reported TGI ( COc1ccc(C)cc1NC(=S)N/N=C/c1ccco1 ) = > 100 µM

Reported TGI ( O=C1C=CC2(C=C1)O[C@H](CCc1ccccc1)[C@@H](CCc1ccccc1)O2 ) = > 100 µM

Reported TGI ( C=C(Cl)C(Cl)(CBr)CCCC(C)C (configuration not stated) ) = 28.5 µM

Reported TGI ( CCOC(=O)C1=C(C)N(Cc2ccccc2)C2(O)C=CC(=O)C3C(=O)N(c4ccccc4)C(=O)C132 (configuration not stated) ) = 12.7 µM

====

For each of the compounds below, state its TGI.
Tested on: SW-620 colon
Test: NCI tumour cell line growth inhibition, 48 h

Reported TGI ( NNC(=S)N/N=C(\c1nc2ccc(Cl)cc2[nH]c1=O)C(O)c1cccc([N+](=O)[O-])c1 (centres undefined) ) = 41.9 µM

Reported TGI ( O=C(c1ccsc1)c1nccc2c1cnc1ccccc12 ) = > 100 µM

Reported TGI ( CC1(c2cccc(C(F)(F)F)c2)CC(c2cccc(C(F)(F)F)c2)=C(C#N)C(=C(C#N)C#N)N1 (centres undefined) ) = 52.1 µM

Reported TGI ( COc1cc(C)cc2c1C(=O)C(NC(C)=O)=CC2=O ) = > 100 µM

Reported TGI ( CCCCCCCCCCCCNC(=S)OCCCC ) = > 100 µM

Reported TGI ( O=C1OC(=O)c2c1cc1cc3c(cc1c2-c1ccc2c(c1)OCO2)OCO3 ) = > 100 µM

Reported TGI ( CCN(CC)CCNc1ccc2nc(C)n3c4ccc(OC)cc4c(=O)c1c23 ) = 9.27 µM

Reported TGI ( CC(C)(C)C1CC[C@H](O)[C@H]([C@@H](O)CC2CC(=O)N(c3ccccc3)C(=O)C2)C1 (some centres undefined) ) = > 100 µM

Reported TGI ( O=C1CSc2ccnc(=O)n21 ) = > 100 µM

====

For each of the molecules below, state its TGI.
Tested on: HCC-2998 colon
Test: NCI tumour cell line growth inhibition, 48 h

Reported TGI ( Cc1ccc(S(=O)(=O)NC(=O)Nc2ncn[nH]2)cc1 ) = > 100 µM

Reported TGI ( N/N=C1\C(=O)N(c2ccc(Cl)c(Cl)c2)C(=O)C1C(=O)Nc1ccc(Cl)c(Cl)c1 (stereo unspecified) ) = > 100 µM

Reported TGI ( CC(Oc1ccc(Cl)cc1Cl)C(=O)NN1C(=O)CC(=O)NC1=S (stereo unspecified) ) = > 100 µM

Reported TGI ( C(#Cc1ccccc1C#Cc1cnccn1)c1cnccn1 ) = > 100 µM

Reported TGI ( CCOP(=O)(OCC)/C(C#N)=C/c1cccn1C ) = > 100 µM

Reported TGI ( CC1CCC2C(C(=O)O[C@H]3C4C=CO[C@@H](OC5OC(CO)C(O)C(O)C5O)C4[C@@]4(CO)O[C@@H]34)=CO[C@@H](OC3OC(CO)C(O)C(O)C3O)C12 (stereo partly specified) ) = > 10 µM

Reported TGI ( O=c1c2cc([N+](=O)[O-])ccc2[nH]n1Cc1ccccc1Cl ) = > 100 µM

Reported TGI ( O=C1c2ccccc2-n2c1nc1ccc([N+](=O)[O-])cc1c2=O ) = > 100 µM

Reported TGI ( CC(=O)NC1=C(NCCO)C(=O)c2ccccc2C1=O ) = > 50 µM

Reported TGI ( O=C1/C(=C/c2ccc([N+](=O)[O-])cc2)Oc2cc(O)ccc21 ) = > 100 µM

Reported TGI ( O=S(=O)(c1ccccc1)C1(C2(S(=O)(=O)c3ccccc3)CCN=N2)CCN=N1 (stereo unspecified) ) = > 100 µM

Reported TGI ( CC(C)(C(=O)N(C(=O)N1CCN(c2ccccc2)CC1)S(=O)(=O)c1ccccc1)c1ccc(Cl)cc1 ) = > 100 µM

Reported TGI ( CC1=C(C(=O)Nc2cc(F)c(F)cc2F)C(c2ccc(N(C)C)cc2)C(C(=O)Nc2cc(F)c(F)cc2F)=C(C)N1 ) = > 83 µM

Reported TGI ( C=CCn1c(C)nc2cc(Nc3nc(N4CCCC4)nc4nc[nH]c34)ccc21 ) = > 100 µM

Reported TGI ( CSCCCNC(=O)c1csc(-c2csc(CCNC(=O)CNC(=O)OC(C)(C)C)n2)n1 ) = > 100 µM

Reported TGI ( O=C(N/N=C/c1coc2ccc(Cl)cc2c1=O)c1cc(O)c(O)c(O)c1 ) = 35.3 µM

Reported TGI ( Cc1c(C(=O)Nc2ccc(Oc3ccnc4cc(OCC(C)(C)O)ccc34)c(F)c2)c(=O)n(-c2ccccc2)n1C ) = > 100 µM

Reported TGI ( Cc1ccccc1-n1c(=O)nc2n(-c3ccc(C(C)(C)C)cc3)c3ccccc3cc-2c1=O ) = 32.4 µM

Reported TGI ( COc1ccc(C)cc1-c1ccc(-c2cc(C)ccc2OC)o1 ) = > 100 µM

Reported TGI ( O=C1CSc2ccnc(=O)n21 ) = > 100 µM

Reported TGI ( Cc1ccc(C(=O)c2[nH]c(NCc3ccccc3)c(C(=S)Nc3ccccc3)c2N)cc1 ) = 2.65 µM
